Test: activity coefficient (dimensionless); of the first substance listed, at infinite dilution; xn = mol fraction of the nth substance listed
Details: 313 K; 101.33 kPa; Liquid; Chromatography; x1 = 0
REPORTED_PROPERTY: activity coefficient
Give bare numbers.

1) CCCCCCCC [octane] + O=S(=O)([N-]S(=O)(=O)C(F)(F)F)C(F)(F)F.O=S(=O)([N-]S(=O)(=O)C(F)(F)F)C(F)(F)F.O=S(=O)([N-]S(=O)(=O)C(F)(F)F)C(F)(F)F.c1ccc2cc(-n3cc[n+](Cc4cc(C[n+]5ccn(-c6ccc7ccccc7c6)c5)cc(C[n+]5ccn(-c6ccc7ccccc7c6)c5)c4)c3)ccc2c1 ... 28.4

Now let's try a different one.
Quick one: activity coefficient for Cc1ccccc1C [1,2-dimethylbenzene] + O=S(=O)([N-]S(=O)(=O)C(F)(F)F)C(F)(F)F.O=S(=O)([N-]S(=O)(=O)C(F)(F)F)C(F)(F)F.O=S(=O)([N-]S(=O)(=O)C(F)(F)F)C(F)(F)F.c1ccc2cc(-n3cc[n+](Cc4cc(C[n+]5ccn(-c6ccc7ccccc7c6)c5)cc(C[n+]5ccn(-c6ccc7ccccc7c6)c5)c4)c3)ccc2c1 ?
3.35
